Biological target: Bet bromodomain protein (BRD4) (Homo sapiens)
Experiment: Bet bromodomain TR-FRET assay
Details: 300 nM acetyl histone peptide substrate, results given as Group A/B/C
From the text: In-Vitro Biochemical Data of bicyclic heterocyclic derivatives in time-resolved fluorescence resonance energy transfer (TR-FRET) assay. The Bet brommodomain TR-FRET assay has been used to identify compounds that bind to bet bromodomain and prevent its interaction with acetylated histone peptides. […]

{"columns": ["COMPOUND", "IC50"],
 "data": [
  ["COc1cc2c(cc1-c1c(C)noc1C)ncc(=O)n2Cc1ccc(Cl)cc1", "≤ 1 µM"],
  ["COc1cc2c(ccc(=O)n2Cc2ccc(Cl)cn2)cc1-c1c(C)noc1C", "≤ 1 µM"],
  ["Cc1noc(C)c1-c1cc2ccc(=O)n(Cc3ccccn3)c2cc1OCCN1CCCC1", "1 to 3 µM"],
  ["COc1cc2c(cc1-c1c(C)noc1C)OCC(=O)N2C(C)c1ccc(Cl)cc1 (single isomer, unassigned) [Compound 33]", "1 to 3 µM"]
]}

* * *

Target: Bet bromodomain protein (BRD4) (Homo sapiens, UniProt O60885)
Assay: Bet bromodomain TR-FRET assay
Details: 300 nM acetyl histone peptide substrate, results given as Group A/B/C
Known IC50 of a selection of compounds
ENDPOINT: IC50

{"columns": ["COMPOUND", "RESULT"],
 "data": [
  ["COc1cc2c(ccc(=O)n2Cc2ncccc2F)cc1-c1c(C)noc1C [Compound 9]", "≤ 1 µM"],
  ["COc1cc2c(cc1-c1c(C)noc1C)cc(CC#N)c(=O)n2CCc1ccc(Cl)cc1 [Compound 106]", "≤ 1 µM"],
  ["COc1cc2c(ccc(=O)n2Cc2ncccn2)cc1-c1c(C)noc1C [Compound 43]", "≤ 1 µM"],
  ["COc1cc2c(cc1Nc1c(C)noc1C)OCC(=O)N2Cc1ccc(Cl)cc1 [Compound 95]", "> 3 µM"],
  ["COc1cc2c(cc1-c1c(C)noc1C)OCC(=O)N2Cc1cccnc1 [Compound 21]", "≤ 1 µM"],
  ["COc1cc2c(cc1-c1c(C)noc1C)cc(C1CCCCC1)c(=O)n2Cc1ccccn1 [Compound 68]", "≤ 1 µM"],
  ["COc1cc2c(cc1-c1c(C)noc1C)OCCN2Cc1ccccc1N [Compound 16]", "≤ 1 µM"],
  ["Cc1noc(C)c1-c1cc2ccc(=O)n(Cc3ccccn3)c2cc1OCCO [Compound 80]", "≤ 1 µM"],
  ["COc1cc2c(ccc(=O)n2Cc2ccccn2)cc1-c1cnoc1C [Compound 63]", "> 3 µM"],
  ["Cc1noc(C)c1-c1cc2ccc(=O)n(Cc3ccccn3)c2cc1OCCN(C)C [Compound 76]", "> 3 µM"],
  ["CCCCOc1cc2c(ccc(=O)n2Cc2ccccn2)cc1-c1c(C)noc1C [Compound 78]", "≤ 1 µM"],
  ["Cc1noc(C)c1-c1cc2ccc(=O)n(Cc3ccc(Cl)cn3)c2cc1O [Compound 73]", "≤ 1 µM"],
  ["COc1cc2c(cc1-c1c(C)noc1C)OCC(=O)N2C(C)c1ccncc1 (single isomer, unassigned) [Compound 20]", "≤ 1 µM"],
  ["COc1cc2c(cc1-c1c(C)noc1C)cc(C)c(=O)n2Cc1ccc(Cl)cn1 [Compound 58]", "≤ 1 µM"],
  ["COc1cc2c(ccc(=O)n2Cc2ccc(F)cn2)cc1-c1c(C)noc1C [Compound 45]", "≤ 1 µM"],
  ["COc1cc2c(ccc(=O)n2Cc2nccs2)cc1-c1c(C)noc1C [Compound 39]", "≤ 1 µM"],
  ["COc1cc2c(ccc(=O)n2Cc2cccnc2)cc1-c1c(C)noc1C [Compound 36]", "≤ 1 µM"],
  ["COc1cc2c(cc1-c1c(C)noc1C)c(C(F)(F)F)cc(=O)n2Cc1ccccn1 [Compound 54]", "> 3 µM"],
  ["COc1cc2c(ccc(=O)n2Cc2cnccn2)cc1-c1c(C)noc1C [Compound 8]", "≤ 1 µM"],
  ["COc1cc2c(ccc(=O)n2Cc2ccc(Cl)cc2)cc1-c1c(C)noc1C [Compound 56]", "≤ 1 µM"],
  ["COc1cc2c(ccc(=O)n2CCN2CCOCC2)cc1-c1c(C)noc1C [Compound 38]", "≤ 1 µM"],
  ["COc1cc2c(ccc(=O)n2Cc2ccc(C(F)(F)F)cn2)cc1-c1c(C)noc1C [Compound 47]", "≤ 1 µM"],
  ["COc1cc2c(ccc(=O)n2Cc2ccncn2)cc1-c1c(C)noc1C [Compound 44]", "≤ 1 µM"],
  ["COc1cc2c(ccc(=O)n2C(C)c2ccccn2)cc1-c1c(C)noc1C (centres unmarked) [Compound 40]", "≤ 1 µM"],
  ["COc1cc2c(cc1-c1c(C)noc1C)OCC(=O)N2CCc1ccccn1 [Compound 35]", "1 to 3 µM"],
  ["COc1cc2c(cc1-c1c(C)noc1C)OCC(=O)N2C(C)c1ccc(Cl)cc1 (single isomer, unassigned) [Compound 34]", "≤ 1 µM"],
  ["COc1cc2c(ccc(=O)n2Cc2ccccn2)cc1-n1c(C)c[nH]c1=O [Compound 91]", "> 3 µM"],
  ["COc1cc2c(ccc(=O)n2Cc2ccccn2)cc1-c1conc1C [Compound 64]", "≤ 1 µM"],
  ["COc1cc2c(ccc(=O)n2Cc2ccccn2)cc1C1=C(C)C(=O)NC1=O [Compound 92]", "> 3 µM"],
  ["COc1cc2c(cc1-c1c(C)noc1C)cc(CF)c(=O)n2Cc1ccccn1 [Compound 97]", "≤ 1 µM"],
  ["COc1cc2c(cc1-c1c(C)noc1C)c(C#N)c(C)c(=O)n2CCc1ccc(Cl)cc1 [Compound 105]", "> 3 µM"],
  ["COc1cc2c(cc1-c1c(C)noc1C)CC(C)(C)C(=O)N2Cc1ccccn1 [Compound 52]", "> 3 µM"],
  ["COc1cc2c(cc1-c1c(C)noc1C)OCC(=O)N2C(C)c1cccnc1 (single isomer, unassigned) [Compound 25]", "1 to 3 µM"],
  ["Cc1noc(C)c1-c1cc2ccc(=O)n(Cc3ccccn3)c2cc1OCCN1CCOCC1 [Compound 75]", "1 to 3 µM"],
  ["COc1cc2c(ccc(=O)n2Cc2ccc3ccccc3n2)cc1-c1c(C)noc1C [Compound 57]", "1 to 3 µM"]
]}

* * *

Target: Bet bromodomain protein (BRD4) (Homo sapiens, UniProt O60885)
Assay: Bet bromodomain TR-FRET assay
Conditions: 300 nM acetyl histone peptide substrate, results given as Group A/B/C
The following molecules are shown together with reported IC50 values.

{"columns": ["MOLECULE", "IC50"],
 "data": [
  ["COc1cc2c(cc1-c1c(C)noc1C)OCC(=O)N2Cc1ccc(C#N)cn1", "1000 to 3000 nM"],
  ["COc1cc2c(cc1-c1c(C)noc1C)OCC(=O)N2C(C)c1cccnc1 (single isomer, unassigned) [Compound 24]", "≤ 1000 nM"],
  ["COc1cc2c(ccc(=O)n2Cc2ccccn2)cc1-c1c(C)noc1C", "≤ 1000 nM"],
  ["COc1cc2c(cc1-c1c(C)noc1C)CCC(=O)N2Cc1ccccn1", "≤ 1000 nM"],
  ["COc1cc2c(ccc(=O)n2CCc2ccccn2)cc1-c1c(C)noc1C", "1000 to 3000 nM"],
  ["COc1cc2c(cc1-c1c(C)noc1C)OCC(=O)N2Cc1ccc(Cl)cc1", "≤ 1000 nM"],
  ["COc1ccc(CN2C(=O)COc3cc(-c4c(C)noc4C)c(OC)cc32)nc1", "1000 to 3000 nM"],
  ["COc1cc2c(cc1-c1c(C)noc1C)OCCN2C(C)c1ccc(Cl)cc1 (stereo not drawn)", "> 3000 nM"],
  ["COc1ccc(CN2C(=O)COc3cc(-c4c(C)noc4C)c(OC)cc32)cn1", "≤ 1000 nM"],
  ["COc1cc2c(cc1-c1c(C)noc1C)OCC(=O)N2Cc1ccc(O)nc1", "> 3000 nM"],
  ["COc1cc2c(cc1-c1c(C)noc1C)c(C)cc(=O)n2Cc1ccccn1", "1000 to 3000 nM"],
  ["Cc1noc(C)c1-c1cc2ccc(=O)n(Cc3ccccn3)c2cc1OCC1CCOCC1", "1000 to 3000 nM"],
  ["COc1cc2c(cc1-c1c(C)noc1C)OCCN2S(=O)(=O)c1cccc(Cl)c1", "1000 to 3000 nM"],
  ["Cc1noc(C)c1-c1cc2ccc(=O)n(Cc3ccccn3)c2cc1OCCC1CCNCC1", "1000 to 3000 nM"],
  ["COc1cc2c(cc1-c1c(C)noc1C)ncc(=O)n2Cc1ccccn1", "≤ 1000 nM"],
  ["Cc1noc(C)c1-c1cc2ccc(=O)n(Cc3ccccn3)c2cc1O", "≤ 1000 nM"],
  ["COc1cc2c(cc1NS(=O)(=O)c1c(C)noc1C)OCC(=O)N2Cc1ccc(Cl)cc1", "> 3000 nM"],
  ["COc1cc2c(ccc(=O)n2Cc2ccc(Cl)nc2)cc1-c1c(C)noc1C", "≤ 1000 nM"]
]}
